All values here come from ChEMBL document CHEMBL5360518.

tested_on: Phosphatidylinositol 4,5-bisphosphate 3-kinase catalytic subunit alpha isoform (Homo sapiens)
experiment_description: Inhibition of PI3Kalpha (unknown origin) using PIP2 as substrate incubated for 1 hr in presence of ATP under dark condition by ADP-Glo luminescent assay
measure_name: IC50

Q: Reported IC50 for COc1ncc(-c2cc(Oc3ccc(/N=N/c4ccc(Oc5cc(-c6cnc(OC)c(NS(=O)(=O)c7ccc(F)cc7F)c6)cc6c(C)ncnc56)cc4)cc3)c3ncnc(C)c3c2)cc1NS(=O)(=O)c1ccc(F)cc1F : what is it?
Result: 17.7 nM

* * *

tested_on: Phosphatidylinositol 4,5-bisphosphate 3-kinase catalytic subunit alpha isoform (Homo sapiens, UniProt P42336)
Sequence (P42336 whole entry, canonical isoform): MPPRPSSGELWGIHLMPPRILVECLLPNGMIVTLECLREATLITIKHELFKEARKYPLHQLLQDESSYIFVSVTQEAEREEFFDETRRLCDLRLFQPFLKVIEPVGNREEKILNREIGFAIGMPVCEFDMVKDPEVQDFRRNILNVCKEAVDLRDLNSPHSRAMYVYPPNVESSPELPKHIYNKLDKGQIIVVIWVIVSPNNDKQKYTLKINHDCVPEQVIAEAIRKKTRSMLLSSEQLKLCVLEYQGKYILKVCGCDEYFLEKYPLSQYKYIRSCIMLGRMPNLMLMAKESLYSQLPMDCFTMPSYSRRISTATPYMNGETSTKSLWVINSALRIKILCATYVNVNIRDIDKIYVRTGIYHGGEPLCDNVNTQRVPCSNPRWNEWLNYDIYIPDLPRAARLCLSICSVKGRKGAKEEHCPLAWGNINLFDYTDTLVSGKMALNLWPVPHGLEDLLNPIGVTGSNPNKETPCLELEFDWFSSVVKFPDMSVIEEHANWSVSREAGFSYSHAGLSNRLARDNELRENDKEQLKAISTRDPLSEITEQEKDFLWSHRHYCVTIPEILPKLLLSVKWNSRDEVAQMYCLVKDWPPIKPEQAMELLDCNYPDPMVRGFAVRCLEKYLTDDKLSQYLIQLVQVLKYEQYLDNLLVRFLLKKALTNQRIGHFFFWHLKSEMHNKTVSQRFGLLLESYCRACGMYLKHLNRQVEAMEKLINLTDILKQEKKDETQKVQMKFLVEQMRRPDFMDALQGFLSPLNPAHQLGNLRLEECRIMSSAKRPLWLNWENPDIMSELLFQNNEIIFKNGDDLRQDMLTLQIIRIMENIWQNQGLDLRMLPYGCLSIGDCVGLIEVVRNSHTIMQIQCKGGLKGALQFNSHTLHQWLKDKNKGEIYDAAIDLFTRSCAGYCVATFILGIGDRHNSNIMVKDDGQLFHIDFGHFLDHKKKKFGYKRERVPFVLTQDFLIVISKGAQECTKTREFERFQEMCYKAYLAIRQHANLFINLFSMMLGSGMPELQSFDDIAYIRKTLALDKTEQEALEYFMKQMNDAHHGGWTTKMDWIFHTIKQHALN
experiment_description: Inhibition of PI3Kalpha (unknown origin) using PIP2 as substrate incubated for 1 hr in presence of ATP under irradiation with 365 nm UV light by ADP-Glo luminescent assay
measure_name: IC50

Q: Reported IC50 for COc1ncc(-c2cc(Oc3ccc(/N=N\c4ccc(Oc5cc(-c6cnc(OC)c(NS(=O)(=O)c7ccc(F)cc7F)c6)cc6c(C)ncnc56)cc4)cc3)c3ncnc(C)c3c2)cc1NS(=O)(=O)c1ccc(F)cc1F : what is it?
Result: 5.24 nM
